Test system: 327498-153-R-J2-PDC complex spheroid growth, % test/control
ASSAY_COMMENT: Anticancer human tumor 327498-153-R-J2-PDC patient-derived uterine carcinosarcoma cell line growth inhibition [Asc]
TEST_SETTINGS: curve of first compound; second compound 1 µM
ASSAY_ENDPOINT: IC50 (nM)
Provide the reading as a plain figure in nM.

Query :: Which IC50 value belongs to O=C(c1ccc(F)c(F)c1Nc1ccc(I)cc1F)N1CC(O)([C@@H]2CCCCN2)C1 + CNC(C)C(=O)NC1CN(S(=O)(=O)c2cccc(S(=O)(=O)N3CCC4CCC(C(=O)NC(c5ccccc5)c5ccccc5)N4C(=O)C(NC(=O)C(C)NC)C3)c2)CCC2CCC(C(=O)NC(c3ccccc3)c3ccccc3)N2C1=O ?
Result :: 430

###

Test system: 327498-153-R-J2-PDC complex spheroid growth, % test/control
ASSAY_COMMENT: Anticancer human tumor 327498-153-R-J2-PDC cell line growth inhibition [Asc];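 note: spheroids exposed to compound for 7 days after 3 days of growth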;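 for viability, T/C: 100% = DMSO vehicle control wells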
TEST_SETTINGS: second compound 0.0949 µM; first compound 0.00316 µM; stronger effect = lower value
So basically: is viability, T/C under 80%? Then Fulfilled. Not under? Then Not fulfilled.

[[record]]
compound = "O=C(c1ccc(F)c(F)c1Nc1ccc(I)cc1F)N1CC(O)([C@@H]2CCCCN2)C1 + CCN1C(C(=O)NC23CCC(C(=O)O)(CC2)CC3)C(c2cccc(Cl)c2F)C2(C(=O)Nc3cc(Cl)ccc32)C12CCCCC2"
class_label = "Fulfilled"

[[record]]
compound = "NC1CCC(NC2CC2c2ccccc2)CC1 (stereo unspecified) + CCN1C(C(=O)NC23CCC(C(=O)O)(CC2)CC3)C(c2cccc(Cl)c2F)C2(C(=O)Nc3cc(Cl)ccc32)C12CCCCC2"
class_label = "Not fulfilled"

[[record]]
compound = "CCN1CCN(Cc2ccc(Nc3ncc(F)c(-c4cc(F)c5nc(C)n(C(C)C)c5c4)n3)nc2)CC1 + CCN1C(C(=O)NC23CCC(C(=O)O)(CC2)CC3)C(c2cccc(Cl)c2F)C2(C(=O)Nc3cc(Cl)ccc32)C12CCCCC2"
class_label = "Fulfilled"


Query :: Given Cn1ncnc1[C@H]1c2n[nH]c(=O)c3cc(F)cc(c23)N[C@@H]1c1ccc(F)cc1 + CCN1C(C(=O)NC23CCC(C(=O)O)(CC2)CC3)C(c2cccc(Cl)c2F)C2(C(=O)Nc3cc(Cl)ccc32)C12CCCCC2 , is recorded viability, T/C strictly lower than 80%?
Result :: Fulfilled

Query :: Field: below-cutoff. Rule: recorded viability, T/C strictly less than 80%. Subject: CNC(C)C(=O)NC1CN(S(=O)(=O)c2cccc(S(=O)(=O)N3CCC4CCC(C(=O)NC(c5ccccc5)c5ccccc5)N4C(=O)C(NC(=O)C(C)NC)C3)c2)CCC2CCC(C(=O)NC(c3ccccc3)c3ccccc3)N2C1=O (stereo unspecified) + CCN1C(C(=O)NC23CCC(C(=O)O)(CC2)CC3)C(c2cccc(Cl)c2F)C2(C(=O)Nc3cc(Cl)ccc32)C12CCCCC2
Result :: Not fulfilled

###

System: 327498-153-R-J2-PDC complex spheroid growth, % test/control
ASSAY_COMMENT: Anticancer human tumor 327498-153-R-J2-PDC cell line growth inhibition [Asc]; active = viability on the fitted dose curve at most 10% of control; inactive = the rest;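 note: spheroids exposed to compound for 7 days after 3 days of growth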
TEST_SETTINGS: second compound 1 µM; first compound 3 µM
Assign a class; possible classes are active, inactive

Query :: What was the test verdict on CCN1C(C(=O)NC23CCC(C(=O)O)(CC2)CC3)C(c2cccc(Cl)c2F)C2(C(=O)Nc3cc(Cl)ccc32)C12CCCCC2 (centres undefined) + CNC(C)C(=O)NC1CN(S(=O)(=O)c2cccc(S(=O)(=O)N3CCC4CCC(C(=O)NC(c5ccccc5)c5ccccc5)N4C(=O)C(NC(=O)C(C)NC)C3)c2)CCC2CCC(C(=O)NC(c3ccccc3)c3ccccc3)N2C1=O ?
Result :: active

Query :: # fetch the recorded call for Cc1nc(N2CCC3(CC2)COC(C)C3N)c(CO)nc1Sc1ccnc(N)c1Cl (centres undefined) + CNC(C)C(=O)NC1CN(S(=O)(=O)c2cccc(S(=O)(=O)N3CCC4CCC(C(=O)NC(c5ccccc5)c5ccccc5)N4C(=O)C(NC(=O)C(C)NC)C3)c2)CCC2CCC(C(=O)NC(c3ccccc3)c3ccccc3)N2C1=O here
Result :: inactive

Query :: I would be grateful if you could indicate the recorded call for CCN1C(C(=O)NC23CCC(C(=O)O)(CC2)CC3)C(c2cccc(Cl)c2F)C2(C(=O)Nc3cc(Cl)ccc32)C12CCCCC2 (centres undefined) + Cc1c(S(C)(=O)=O)c(-c2cc(F)cc(N3CCN(c4ccc(NS(=O)(=O)c5ccc(NC(CCN6CCC(C(=O)OCCCP(=O)(O)O)CC6)CSc6ccccc6)c(S(=O)(=O)C(F)(F)F)c5)cc4)CC3)c2)c(-c2ccc(Cl)cc2)n1C(C)C .
Result :: active

Query :: Assay outcome for Cc1nc(N2CCC3(CC2)COC(C)C3N)c(CO)nc1Sc1ccnc(N)c1Cl (centres undefined) + Cc1c(S(C)(=O)=O)c(-c2cc(F)cc(N3CCN(c4ccc(NS(=O)(=O)c5ccc(NC(CCN6CCC(C(=O)OCCCP(=O)(O)O)CC6)CSc6ccccc6)c(S(=O)(=O)C(F)(F)F)c5)cc4)CC3)c2)c(-c2ccc(Cl)cc2)n1C(C)C : what was it?
Result :: inactive

###

Each entry below carries its recorded viability, T/C.
System: 327498-153-R-J2-PDC complex spheroid growth, % test/control
ASSAY_COMMENT: Anticancer human tumor 327498-153-R-J2-PDC cell line growth inhibition [Asc];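 note: spheroids exposed to compound for 7 days after 3 days of growth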;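 for viability, T/C: 100% = DMSO vehicle control wells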
TEST_SETTINGS: second compound 1 µM; first compound 0.0316 µM; stronger effect = lower value
Number only, in %; omit the unit.

[[record]]
molecule = "NC1CCC(NC2CC2c2ccccc2)CC1 (configuration not stated) + Cc1c(S(C)(=O)=O)c(-c2cc(F)cc(N3CCN(c4ccc(NS(=O)(=O)c5ccc(NC(CCN6CCC(C(=O)OCCCP(=O)(O)O)CC6)CSc6ccccc6)c(S(=O)(=O)C(F)(F)F)c5)cc4)CC3)c2)c(-c2ccc(Cl)cc2)n1C(C)C"
data_value = 96.8


We now examine a further molecule.
Query :: Fill in the blank: the reported viability, T/C of Cn1ncnc1[C@H]1c2n[nH]c(=O)c3cc(F)cc(c23)N[C@@H]1c1ccc(F)cc1 + Cc1c(S(C)(=O)=O)c(-c2cc(F)cc(N3CCN(c4ccc(NS(=O)(=O)c5ccc(NC(CCN6CCC(C(=O)OCCCP(=O)(O)O)CC6)CSc6ccccc6)c(S(=O)(=O)C(F)(F)F)c5)cc4)CC3)c2)c(-c2ccc(Cl)cc2)n1C(C)C is ____.
Result :: 15.3

###

Tested on: 327498-153-R-J2-PDC complex spheroid growth, % test/control
ASSAY_COMMENT: Anticancer human tumor 327498-153-R-J2-PDC cell line growth inhibition [Asc];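 note: spheroids exposed to compound for 7 days after 3 days of growth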
TEST_SETTINGS: curve of first compound; second compound 0.316 µM
ASSAY_ENDPOINT: IC50 (nM)
The reply should be a number in nM, with the unit left off.

Use these answered entries as a reference point.
[[record]]
compound = "O=C(c1cc(Cc2n[nH]c(=O)c3ccccc23)ccc1F)N1CCN(C(=O)C2CC2)CC1 + CNC(C)C(=O)NC1CN(S(=O)(=O)c2cccc(S(=O)(=O)N3CCC4CCC(C(=O)NC(c5ccccc5)c5ccccc5)N4C(=O)C(NC(=O)C(C)NC)C3)c2)CCC2CCC(C(=O)NC(c3ccccc3)c3ccccc3)N2C1=O"
data_value = 4070

[[record]]
compound = "CCN1C(C(=O)NC23CCC(C(=O)O)(CC2)CC3)C(c2cccc(Cl)c2F)C2(C(=O)Nc3cc(Cl)ccc32)C12CCCCC2 (stereo not drawn) + Cc1c(S(C)(=O)=O)c(-c2cc(F)cc(N3CCN(c4ccc(NS(=O)(=O)c5ccc(NC(CCN6CCC(C(=O)OCCCP(=O)(O)O)CC6)CSc6ccccc6)c(S(=O)(=O)C(F)(F)F)c5)cc4)CC3)c2)c(-c2ccc(Cl)cc2)n1C(C)C"
data_value = 136


Query :: Quick one: IC50 of O=C(c1ccc(F)c(F)c1Nc1ccc(I)cc1F)N1CC(O)([C@@H]2CCCCN2)C1 + CNC(C)C(=O)NC1CN(S(=O)(=O)c2cccc(S(=O)(=O)N3CCC4CCC(C(=O)NC(c5ccccc5)c5ccccc5)N4C(=O)C(NC(=O)C(C)NC)C3)c2)CCC2CCC(C(=O)NC(c3ccccc3)c3ccccc3)N2C1=O ?
Result :: 304

###

System: 327498-153-R-J2-PDC complex spheroid growth, % test/control
ASSAY_COMMENT: Anticancer human tumor 327498-153-R-J2-PDC cell line growth inhibition [Asc];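 note: spheroids exposed to compound for 7 days after 3 days of growth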;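 for viability, T/C: 100% = DMSO vehicle control wells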
TEST_SETTINGS: second compound 0.1 µM; first compound 0.01 µM; stronger effect = lower value
Excerpt: Multicellular complex tumor spheroid response to apoptosis pathway targeting inhibitors Alrizomadlin, Pelcitoclax, and Dasminapant in combination with a variety of drugs and investigational agents in selected tumor cell lines […] Compounds. […] If the clinical Cmax for an agent had not been determined, the highest concentration tested was 10 microM. […]
ASSAY_ENDPOINT: viability, T/C (%)
Give the value, in units of %, as a plain number.

For orientation, consider the following solved cases.
[[record]]
molecule = "O=C(c1ccc(F)c(F)c1Nc1ccc(I)cc1F)N1CC(O)([C@@H]2CCCCN2)C1 + Cc1c(S(C)(=O)=O)c(-c2cc(F)cc(N3CCN(c4ccc(NS(=O)(=O)c5ccc(NC(CCN6CCC(C(=O)OCCCP(=O)(O)O)CC6)CSc6ccccc6)c(S(=O)(=O)C(F)(F)F)c5)cc4)CC3)c2)c(-c2ccc(Cl)cc2)n1C(C)C"
assay_endpoint = "viability, T/C"
data_value = 96.2

[[record]]
molecule = "Cn1ncnc1[C@H]1c2n[nH]c(=O)c3cc(F)cc(c23)N[C@@H]1c1ccc(F)cc1 + Cc1c(S(C)(=O)=O)c(-c2cc(F)cc(N3CCN(c4ccc(NS(=O)(=O)c5ccc(NC(CCN6CCC(C(=O)OCCCP(=O)(O)O)CC6)CSc6ccccc6)c(S(=O)(=O)C(F)(F)F)c5)cc4)CC3)c2)c(-c2ccc(Cl)cc2)n1C(C)C"
assay_endpoint = "viability, T/C"
data_value = 51.4

[[record]]
molecule = "CCN1CCN(Cc2ccc(Nc3ncc(F)c(-c4cc(F)c5nc(C)n(C(C)C)c5c4)n3)nc2)CC1 + CNC(C)C(=O)NC1CN(S(=O)(=O)c2cccc(S(=O)(=O)N3CCC4CCC(C(=O)NC(c5ccccc5)c5ccccc5)N4C(=O)C(NC(=O)C(C)NC)C3)c2)CCC2CCC(C(=O)NC(c3ccccc3)c3ccccc3)N2C1=O"
assay_endpoint = "viability, T/C"
data_value = 104

[[record]]
molecule = "COc1c(OCCCN2CCOCC2)ccc2c3n(c(=NC(=O)c4cnc(N)nc4)nc12)CCN3 + Cc1c(S(C)(=O)=O)c(-c2cc(F)cc(N3CCN(c4ccc(NS(=O)(=O)c5ccc(NC(CCN6CCC(C(=O)OCCCP(=O)(O)O)CC6)CSc6ccccc6)c(S(=O)(=O)C(F)(F)F)c5)cc4)CC3)c2)c(-c2ccc(Cl)cc2)n1C(C)C"
assay_endpoint = "viability, T/C"
data_value = 91.2

[[record]]
molecule = "NC1CCC(NC2CC2c2ccccc2)CC1 (stereo not drawn) + Cc1c(S(C)(=O)=O)c(-c2cc(F)cc(N3CCN(c4ccc(NS(=O)(=O)c5ccc(NC(CCN6CCC(C(=O)OCCCP(=O)(O)O)CC6)CSc6ccccc6)c(S(=O)(=O)C(F)(F)F)c5)cc4)CC3)c2)c(-c2ccc(Cl)cc2)n1C(C)C"
assay_endpoint = "viability, T/C"
data_value = 95.6


Query :: Find the recorded viability, T/C belonging to CNC(C)C(=O)NC1CN(S(=O)(=O)c2cccc(S(=O)(=O)N3CCC4CCC(C(=O)NC(c5ccccc5)c5ccccc5)N4C(=O)C(NC(=O)C(C)NC)C3)c2)CCC2CCC(C(=O)NC(c3ccccc3)c3ccccc3)N2C1=O (stereo not drawn) + Cc1c(S(C)(=O)=O)c(-c2cc(F)cc(N3CCN(c4ccc(NS(=O)(=O)c5ccc(NC(CCN6CCC(C(=O)OCCCP(=O)(O)O)CC6)CSc6ccccc6)c(S(=O)(=O)C(F)(F)F)c5)cc4)CC3)c2)c(-c2ccc(Cl)cc2)n1C(C)C and report it.
Result :: 91.2

Query :: Sample Cn1ncnc1[C@H]1c2n[nH]c(=O)c3cc(F)cc(c23)N[C@@H]1c1ccc(F)cc1 + CNC(C)C(=O)NC1CN(S(=O)(=O)c2cccc(S(=O)(=O)N3CCC4CCC(C(=O)NC(c5ccccc5)c5ccccc5)N4C(=O)C(NC(=O)C(C)NC)C3)c2)CCC2CCC(C(=O)NC(c3ccccc3)c3ccccc3)N2C1=O — what was its viability, T/C?
Result :: 73.3

Query :: Item NC1CCC(NC2CC2c2ccccc2)CC1 (stereo not drawn) + CNC(C)C(=O)NC1CN(S(=O)(=O)c2cccc(S(=O)(=O)N3CCC4CCC(C(=O)NC(c5ccccc5)c5ccccc5)N4C(=O)C(NC(=O)C(C)NC)C3)c2)CCC2CCC(C(=O)NC(c3ccccc3)c3ccccc3)N2C1=O has what recorded viability, T/C?
Result :: 104
